Tested on: COR L88 complex tumor spheroid viability
Test Protocol: Anticancer human tumor COR L88 cell line growth inhibition
Experimental Setup: second compound 0.00949 µM; first compound 1 µM; active compounds read low
Observed Property: viability, T/C

| Compound | Experimental Value |
| --- | --- |
| COc1ccc([C@@H](O)c2cc(-c3ncnc4cc(N5CCOCC5)ccc34)c(F)cc2Cl)nn1 + CC[C@@]1(O)C(=O)OCc2c1cc1n(c2=O)Cc2cc3c(CN(C)C)c(O)ccc3nc2-1 | 57.6% |
| Cc1cc(C)c(CNC(=O)c2cc(-c3ccc(CN4CCOCC4)cc3)cc3c2cnn3C2CCCC2)c(=O)[nH]1 + CC[C@@]1(O)C(=O)OCc2c1cc1n(c2=O)Cc2cc3c(CN(C)C)c(O)ccc3nc2-1 | 73% |
| CC1COCCN1c1cc(-c2ccnn2C)c2ccnc(-c3ccn[nH]3)c2n1 (stereo unspecified) + CC[C@@]1(O)C(=O)OCc2c1cc1n(c2=O)Cc2cc3c(CN(C)C)c(O)ccc3nc2-1 | 17.1% |
| CC(C)n1c(=O)n(C)c2cnc3cc(F)c(-c4ccc(OCCCN5CCCCC5)nc4)cc3c21 + CC[C@@]1(O)C(=O)OCc2c1cc1n(c2=O)Cc2cc3c(CN(C)C)c(O)ccc3nc2-1 | 40.6% |
| [2H]c1nc(C)nc([2H])c1-c1cc(NC[C@@H](C)c2cccc3c(C(=O)NC)ccnc23)ncn1 + CC[C@@]1(O)C(=O)OCc2c1cc1n(c2=O)Cc2cc3c(CN(C)C)c(O)ccc3nc2-1 | 87.7% |
| COc1cc(C)[nH]c(=O)c1CN1CCc2c(Cl)cc(C(OC)C3COC3)c(Cl)c2C1=O (stereo unspecified) + CC[C@@]1(O)C(=O)OCc2c1cc1n(c2=O)Cc2cc3c(CN(C)C)c(O)ccc3nc2-1 | 50.9% |

* * *

viability, T/C: recorded values
Test system: COR L88 complex tumor spheroid viability
Test Protocol: Anticancer human tumor COR L88 cell line growth inhibition
Experimental Setup: second compound 3.16 µM; first compound 0.0316 µM; active compounds read low
Observed Property: viability, T/C (%)

| Molecule | Observed Property | Unit Info | Experimental Value |
| --- | --- | --- | --- |
| COc1cc(C)[nH]c(=O)c1CN1CCc2c(Cl)cc(C(OC)C3COC3)c(Cl)c2C1=O (stereo unspecified) + Cn1nnc2c(C(N)=O)ncn2c1=O | viability, T/C | % | 74 |
| CC1COCCN1c1cc(-c2ccnn2C)c2ccnc(-c3ccn[nH]3)c2n1 (stereo unspecified) + Cn1nnc2c(C(N)=O)ncn2c1=O | viability, T/C | % | 59 |
| COc1ccc([C@@H](O)c2cc(-c3ncnc4cc(N5CCOCC5)ccc34)c(F)cc2Cl)nn1 + Cn1nnc2c(C(N)=O)ncn2c1=O | viability, T/C | % | 92.8 |
| [2H]c1nc(C)nc([2H])c1-c1cc(NC[C@@H](C)c2cccc3c(C(=O)NC)ccnc23)ncn1 + Cn1nnc2c(C(N)=O)ncn2c1=O | viability, T/C | % | 94.5 |
| CC(C)n1c(=O)n(C)c2cnc3cc(F)c(-c4ccc(OCCCN5CCCCC5)nc4)cc3c21 + Cn1nnc2c(C(N)=O)ncn2c1=O | viability, T/C | % | 96.2 |
| Cc1cc(C)c(CNC(=O)c2cc(-c3ccc(CN4CCOCC4)cc3)cc3c2cnn3C2CCCC2)c(=O)[nH]1 + Cn1nnc2c(C(N)=O)ncn2c1=O | viability, T/C | % | 101 |

* * *

Test system: COR L88 complex tumor spheroid viability
Test Protocol: Anticancer human tumor COR L88 cell line growth inhibition;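 also: compound exposure lasted 7 days before viability readout; percent of DMSO vehicle-treated spheroids = 100%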
Experimental Setup: second compound 10 µM; first compound 1 µM; active compounds read low
Procedure: Multicellular complex tumor spheroid response to DNA repair inhibitors in combination with DNA-damaging drugs This study explores the anticancer activities of DNA-damaging drugs and inhibitors of DNA damage repair, both as single agents and in combinations. […] Twenty-six patient-derived or established malignant cell lines were evaluated representing sarcoma, melanoma, small cell lung cancer (SCLC), non-small cell lung cancer (NSCLC), as well as bladder, ovarian and pancreatic cancers. […]

| Compound | viability, T/C (%) |
| --- | --- |
| CC(C)n1c(=O)n(C)c2cnc3cc(F)c(-c4ccc(OCCCN5CCCCC5)nc4)cc3c21 + Cn1nnc2c(C(N)=O)ncn2c1=O | 91.2 |
| [2H]c1nc(C)nc([2H])c1-c1cc(NC[C@@H](C)c2cccc3c(C(=O)NC)ccnc23)ncn1 + Cn1nnc2c(C(N)=O)ncn2c1=O | 88.7 |
| COc1cc(C)[nH]c(=O)c1CN1CCc2c(Cl)cc(C(OC)C3COC3)c(Cl)c2C1=O (stereo unspecified) + Cn1nnc2c(C(N)=O)ncn2c1=O | 50.3 |
| COc1ccc([C@@H](O)c2cc(-c3ncnc4cc(N5CCOCC5)ccc34)c(F)cc2Cl)nn1 + Cn1nnc2c(C(N)=O)ncn2c1=O | 75.1 |
| CC1COCCN1c1cc(-c2ccnn2C)c2ccnc(-c3ccn[nH]3)c2n1 (stereo unspecified) + Cn1nnc2c(C(N)=O)ncn2c1=O | 18.4 |
| Cc1cc(C)c(CNC(=O)c2cc(-c3ccc(CN4CCOCC4)cc3)cc3c2cnn3C2CCCC2)c(=O)[nH]1 + Cn1nnc2c(C(N)=O)ncn2c1=O | 75.2 |

* * *

Test system: COR L88 complex tumor spheroid viability
Test Protocol: Anticancer human tumor COR L88 cell line growth inhibition; active = viability on the fitted dose curve at most 10% of control; inactive = the rest;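 also: compound exposure lasted 7 days before viability readout; percent of DMSO vehicle-treated spheroids = 100%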
Experimental Setup: second compound 0.003 µM; first compound 0.3 µM
Outcomes: active, inactive

| Molecule | System Name | Class Label |
| --- | --- | --- |
| Cc1sc2c(c1C)C(c1ccc(Cl)cc1)=NC(CC(=O)Nc1ccc(O)cc1)c1nnc(C)n1-2 (stereo not drawn) + COc1cc2c(cc1O)CCNC21CSC2c3c(OC(C)=O)c(C)c4c(c3C(COC1=O)N1C(O)C3Cc5cc(C)c(OC)c(O)c5C(C21)N3C)OCO4 | COR L88 complex tumor spheroid viability | active |
| CNCc1ccc(-c2cc(-c3nc(-c4ccc(S(=O)(=O)C(C)C)cc4)cnc3N)on2)cc1 + CC[C@@]1(O)C(=O)OCc2c1cc1n(c2=O)Cc2cc3c(CN(C)C)c(O)ccc3nc2-1 | COR L88 complex tumor spheroid viability | inactive |
| Cc1sc2c(c1C)C(c1ccc(Cl)cc1)=NC(CC(=O)Nc1ccc(O)cc1)c1nnc(C)n1-2 (stereo not drawn) + CC[C@@]1(O)C(=O)OCc2c1cc1n(c2=O)Cc2cc3c(CN(C)C)c(O)ccc3nc2-1 | COR L88 complex tumor spheroid viability | inactive |

* * *

Tested on: COR L88 complex tumor spheroid viability
Test Protocol: Anticancer human tumor COR L88 cell line growth inhibition;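 also: compound exposure lasted 7 days before viability readout; percent of DMSO vehicle-treated spheroids = 100%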
Experimental Setup: second compound 0.00949 µM; first compound 0.949 µM; active compounds read low
viability, T/C: recorded values

| Compound | viability, T/C, % |
| --- | --- |
| O=C(c1cc(Cc2n[nH]c(=O)c3ccccc23)ccc1F)N1CCN(C(=O)C2CC2)CC1 + CC[C@@]1(O)C(=O)OCc2c1cc1n(c2=O)Cc2cc3c(CN(C)C)c(O)ccc3nc2-1 | 57.3 |
| CNCc1ccc(-c2cc(-c3nc(-c4ccc(S(=O)(=O)C(C)C)cc4)cnc3N)on2)cc1 + CC[C@@]1(O)C(=O)OCc2c1cc1n(c2=O)Cc2cc3c(CN(C)C)c(O)ccc3nc2-1 | 30 |
| Cn1ncnc1[C@H]1c2n[nH]c(=O)c3cc(F)cc(c23)N[C@@H]1c1ccc(F)cc1 + CC[C@@]1(O)C(=O)OCc2c1cc1n(c2=O)Cc2cc3c(CN(C)C)c(O)ccc3nc2-1 | 40.2 |
| Cc1sc2c(c1C)C(c1ccc(Cl)cc1)=NC(CC(=O)Nc1ccc(O)cc1)c1nnc(C)n1-2 (centres undefined) + CC[C@@]1(O)C(=O)OCc2c1cc1n(c2=O)Cc2cc3c(CN(C)C)c(O)ccc3nc2-1 | 23.7 |

* * *

Test system: COR L88 complex tumor spheroid viability
Test Protocol: Anticancer human tumor COR L88 cell line growth inhibition;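 also: compound exposure lasted 7 days before viability readout; percent of DMSO vehicle-treated spheroids = 100%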
Experimental Setup: second compound 0.003 µM; first compound 0.316 µM; active compounds read low
viability, T/C: recorded values
Observed Property: viability, T/C

| Compound | System Name | Experimental Value |
| --- | --- | --- |
| CC(C)n1c(=O)n(C)c2cnc3cc(F)c(-c4ccc(OCCCN5CCCCC5)nc4)cc3c21 + COc1cc2c(cc1O)CCNC21CSC2c3c(OC(C)=O)c(C)c4c(c3C(COC1=O)N1C(O)C3Cc5cc(C)c(OC)c(O)c5C(C21)N3C)OCO4 | COR L88 complex tumor spheroid viability | 0.6% |
| [2H]c1nc(C)nc([2H])c1-c1cc(NC[C@@H](C)c2cccc3c(C(=O)NC)ccnc23)ncn1 + COc1cc2c(cc1O)CCNC21CSC2c3c(OC(C)=O)c(C)c4c(c3C(COC1=O)N1C(O)C3Cc5cc(C)c(OC)c(O)c5C(C21)N3C)OCO4 | COR L88 complex tumor spheroid viability | 0.53% |
| Cc1cc(C)c(CNC(=O)c2cc(-c3ccc(CN4CCOCC4)cc3)cc3c2cnn3C2CCCC2)c(=O)[nH]1 + CC[C@@]1(O)C(=O)OCc2c1cc1n(c2=O)Cc2cc3c(CN(C)C)c(O)ccc3nc2-1 | COR L88 complex tumor spheroid viability | 90.4% |
| COc1ccc([C@@H](O)c2cc(-c3ncnc4cc(N5CCOCC5)ccc34)c(F)cc2Cl)nn1 + COc1cc2c(cc1O)CCNC21CSC2c3c(OC(C)=O)c(C)c4c(c3C(COC1=O)N1C(O)C3Cc5cc(C)c(OC)c(O)c5C(C21)N3C)OCO4 | COR L88 complex tumor spheroid viability | 1.37% |
